These entries and their values trace back to ChEMBL document CHEMBL1201862.

Tested on: MOLT-4
Experiment: NCI tumour cell line growth inhibition, 48 h
Activity calls are given as the source filed them. No stated cut-off is given here; in the data, active = GI50 up to about 1.1 µM and inactive = higher.
Recorded metric: GI50

In plain terms, COC(=O)c1ccc(NCc2cc(O)c3ccccc3c2O)cc1 has a documented GI50 of 2.81 µM (inactive)

In plain terms, C=CSCCC(N)C(=O)O (centres undefined) has a documented GI50 of > 100 µM (inactive)

In plain terms, Cc1ccc2sc3cc(=O)cc(C)c-3nc2c1 has a documented GI50 of 15.7 µM (inactive)

In plain terms, Nc1nc(S)nc(C(=O)Nc2nccs2)c1-c1ccccc1 has a documented GI50 of > 100 µM (inactive)

In plain terms, Cc1nn(-c2ccccc2)c2nc3c(c(C)nn3-c3ccccc3)c(-c3ccc(C(F)(F)F)cc3)c12 has a documented GI50 of > 100 µM (inactive)

In plain terms, O=[N+]([O-])c1ccc(-c2noc(-c3ccc(Cl)cc3)c2C2=NCCN2)cc1 has a documented GI50 of > 100 µM (inactive)

In plain terms, Cc1nn2c(C(=O)N/N=C/c3ccccc3O)c(C)nc2s1 has a documented GI50 of 51.9 µM (inactive)

In plain terms, CCOP(=O)(CC1CC(O)(CNc2cc(Cl)nc(N)n2)C1)OCC (centres undefined) has a documented GI50 of > 100 µM (inactive)

In plain terms, COc1ccc2nc3c(C)cc4ccccc4n3c2c1 has a documented GI50 of 23 µM (inactive)
